experiment: Clearance in rat at 0.15 mg/kg, iv; assay type: ADME, organism-based; conditions: in vivo
reported-property: clearance (mL/min/kg)

- Cn1cc(-c2cccc(C(=O)Nc3cn(C)nc3C(N)=O)n2)cn1: 53
- Cn1cc(NC(=O)c2cnn3ccc(N4CCNCC4)nc23)c(C(N)=O)n1: 39

---

assay: Clearance in rat at 1.45 mg/kg, iv; format: ADME, organism-based; conditions: in vivo
reported-property: clearance (mL/min/kg)

- Cn1cc(NC(=O)c2cncc(-c3ccnc(NCC4CC4)c3)c2)c(C(N)=O)n1: 31
- Cn1cc(NC(=O)c2cccc(-c3ccnc(NCC4CC4)c3)c2)c(C(N)=O)n1: 32

---

Here, each record is paired with measured IC50 data.
target: Voltage-gated inwardly rectifying potassium channel KCNH2 (Homo sapiens, UniProt Q12809)
Sequence (Q12809 whole entry): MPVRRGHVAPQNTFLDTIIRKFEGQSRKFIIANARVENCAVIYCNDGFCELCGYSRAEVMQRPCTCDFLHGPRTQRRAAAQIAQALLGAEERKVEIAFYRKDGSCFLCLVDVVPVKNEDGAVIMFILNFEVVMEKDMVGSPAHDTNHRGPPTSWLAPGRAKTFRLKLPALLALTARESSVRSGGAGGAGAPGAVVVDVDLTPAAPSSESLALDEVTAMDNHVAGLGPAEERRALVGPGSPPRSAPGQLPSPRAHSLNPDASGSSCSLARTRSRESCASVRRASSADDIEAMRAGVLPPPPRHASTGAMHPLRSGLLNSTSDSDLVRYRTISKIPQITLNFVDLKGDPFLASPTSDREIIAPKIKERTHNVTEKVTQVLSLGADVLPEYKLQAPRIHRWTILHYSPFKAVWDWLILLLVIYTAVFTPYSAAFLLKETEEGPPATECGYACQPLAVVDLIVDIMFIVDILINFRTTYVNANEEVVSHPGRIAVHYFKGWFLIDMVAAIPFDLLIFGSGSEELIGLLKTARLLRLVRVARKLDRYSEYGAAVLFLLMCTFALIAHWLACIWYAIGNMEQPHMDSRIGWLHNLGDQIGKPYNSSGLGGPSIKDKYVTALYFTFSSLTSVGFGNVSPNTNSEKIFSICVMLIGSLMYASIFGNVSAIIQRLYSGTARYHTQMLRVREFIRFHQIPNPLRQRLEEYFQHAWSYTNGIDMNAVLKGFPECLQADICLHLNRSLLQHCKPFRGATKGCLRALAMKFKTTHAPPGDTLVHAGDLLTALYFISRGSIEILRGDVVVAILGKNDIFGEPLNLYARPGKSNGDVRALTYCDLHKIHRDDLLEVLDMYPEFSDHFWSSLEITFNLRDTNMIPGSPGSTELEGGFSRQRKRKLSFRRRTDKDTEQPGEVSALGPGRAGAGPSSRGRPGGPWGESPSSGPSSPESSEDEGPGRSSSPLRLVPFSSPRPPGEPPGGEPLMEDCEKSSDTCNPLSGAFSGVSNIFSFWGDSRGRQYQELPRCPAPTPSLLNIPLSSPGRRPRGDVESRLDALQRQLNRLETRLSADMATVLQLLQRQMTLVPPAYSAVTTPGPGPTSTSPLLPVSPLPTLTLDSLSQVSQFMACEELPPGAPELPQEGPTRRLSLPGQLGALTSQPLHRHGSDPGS
reported-property: IC50 (µM)

- Cn1cc(NC(=O)c2ccnc(-c3ccnc(NCC4CC4)c3)n2)c(C(N)=O)n1: 1.9
- Cn1cc(NC(=O)c2cccc(-c3ccnc(NCC4CC4)c3)c2)c(C(N)=O)n1: 6.1
- Cn1cc(NC(=O)c2cncc(-c3ccnc(NCC4CC4)c3)c2)c(C(N)=O)n1: 5.2
- Cn1cc(NC(=O)c2cccc(-c3ccnc(N)c3)n2)c(C(N)=O)n1: 25
- Cn1cc(NC(=O)c2cccc(-c3ccnc(NCC4CC4)c3)n2)c(C(N)=O)n1: 2.9
- CN1CCCC(CNC(=O)c2nn(C)cc2NC(=O)c2cccc(-c3ccnc(NCC4CC4)c3)n2)C1 (stereo unspecified): 12
- Cn1cc(NC(=O)c2cccc(-c3ccnc(NCC4CC4)c3)n2)c(C(=O)N2CC(CN)C2)n1: 40

---

system: MDR1; experiment: Efflux ratio of permeability in dog MDCK2-MDR1 cells; assay type: ADME, cell-based, Canis lupus familiaris; details: MDCK-MDR1
reported-property: efflux ratio

- Cn1cc(-c2cccc(C(=O)Nc3cn(C)nc3C(N)=O)n2)cn1: 0.5
- Cn1cc(NC(=O)c2cnn3ccc(N4CCNCC4)nc23)c(C(N)=O)n1: 1
- Cn1cc(NC(=O)c2cccc(-c3ccnc(NCC4CC4)c3)n2)c(C(N)=O)n1: 0.3

---

test: Clearance in rat; assay type: ADME; conditions: in vivo
Reported clearance is given for each of the following compounds.
reported-property: clearance (mL/min/kg)

• CN(C)[C@H]1CN(C(=O)c2nn(C)cc2NC(=O)c2cccc(-c3ccnc(NCC4CC4)c3)n2)C[C@@H]1O = 37
• CN1CCCC(CNC(=O)c2nn(C)cc2NC(=O)c2cccc(-c3ccnc(NCC4CC4)c3)n2)C1 (configuration not stated) = 21
• Cn1cc(NC(=O)c2cccc(-c3ccnc(NCC4CC4)c3)c2)c(C(N)=O)n1 = 25
• Cn1cc(NC(=O)c2ccnc(-c3ccnc(NCC4CC4)c3)n2)c(C(N)=O)n1 = 43
• Cn1cc(NC(=O)c2cccc(-c3ccnc(NCC4CC4)c3)n2)c(C(=O)N2CC(CN)C2)n1 = 6
• Cn1cc(NC(=O)c2cnn3ccc(N4CCNCC4)nc23)c(C(N)=O)n1 = 3
• Cn1cc(NC(=O)c2cccc(-c3ccnc(NCC4CC4)c3)n2)c(C(N)=O)n1 = 17
• Cn1cc(NC(=O)c2cccc(-c3ccnc(N)c3)n2)c(C(N)=O)n1 = 24
• Cn1cc(NC(=O)c2cccc(-c3ccc(C4CC4)nc3)n2)c(C(N)=O)n1 = 30
• Cn1cc(NC(=O)c2cccc(-c3cccnc3)n2)c(C(N)=O)n1 = 54
• Cn1cc(-c2cccc(C(=O)Nc3cn(C)nc3C(N)=O)n2)cn1 = 53
• Cn1cc(NC(=O)c2cncc(-c3ccnc(NCC4CC4)c3)c2)c(C(N)=O)n1 = 53

---

Target: Interleukin-1 receptor-associated kinase 4 (Homo sapiens, UniProt Q9NWZ3)
Sequence (Q9NWZ3 whole entry): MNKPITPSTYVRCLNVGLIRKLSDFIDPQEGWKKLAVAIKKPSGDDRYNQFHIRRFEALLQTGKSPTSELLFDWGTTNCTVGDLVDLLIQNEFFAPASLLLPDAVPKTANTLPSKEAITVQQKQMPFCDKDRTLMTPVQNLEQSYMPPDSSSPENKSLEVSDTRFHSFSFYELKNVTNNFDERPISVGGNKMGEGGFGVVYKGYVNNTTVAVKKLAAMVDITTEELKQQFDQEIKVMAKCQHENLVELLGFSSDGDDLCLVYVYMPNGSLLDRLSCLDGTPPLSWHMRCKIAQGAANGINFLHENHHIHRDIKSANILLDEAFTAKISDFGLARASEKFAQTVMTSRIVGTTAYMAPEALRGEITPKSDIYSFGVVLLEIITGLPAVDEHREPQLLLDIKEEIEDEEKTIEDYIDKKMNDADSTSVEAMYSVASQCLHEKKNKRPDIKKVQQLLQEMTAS
Test: Inhibition of […] IRAK4 in human THP1-XBlue cells assessed as decrease in NF-kappaB level preincubated for 1 hr followed by stimulation with LPS for 4 to 5 hrs measured after 30 mins by spectrophotometric analysis
Type: cell-based
pIC50: −log10 of the molar value.
Overview of reported pIC50 across a group of compounds:
reported-property: pIC50

* Cn1cc(NC(=O)c2cnn3ccc(N4CCNCC4)nc23)c(C(N)=O)n1 | 6.82
* Cn1cc(NC(=O)c2cccc(-c3ccnc(N)c3)n2)c(C(N)=O)n1 | 6.59
* Cn1cc(NC(=O)c2cccc(-c3ccnc(NCC(F)(F)F)c3)n2)c(C(N)=O)n1 | 6.53
* Cn1cc(NC(=O)c2cccc(-c3cncc(Cl)c3)n2)c(C(N)=O)n1 | 6.69
* Cn1cc(-c2cccc(C(=O)Nc3cn(C)nc3C(N)=O)n2)cn1 | 6.86
* Cn1cc(NC(=O)c2cccc(-c3ccnc(NCC4CC4)c3)c2)c(C(N)=O)n1 | 6.37
* CN(C)[C@H]1CN(C(=O)c2nn(C)cc2NC(=O)c2cccc(-c3ccnc(NCC4CC4)c3)n2)C[C@@H]1O | 6.27
* Cn1cc(NC(=O)c2cccc(-c3ccnc(NCC4CC4)c3)n2)c(C(N)=O)n1 | 6.77
* Cn1cc(NC(=O)c2cccc(-c3ccnc(NCC4CC4)c3)n2)c(C(=O)N2CC(CN)C2)n1 | 6.32
* Cn1cc(NC(=O)c2cccc(-c3ccc(C4CC4)nc3)n2)c(C(N)=O)n1 | 6.51

---

experiment: Apparent permeability in dog MDCK2-MDR1 cells; type: ADME, cell-based, Canis lupus familiaris; settings: MDCK-MDR1
reported-property: Papp

* Cn1cc(NC(=O)c2cccc(-c3ccnc(NCC4CC4)c3)n2)c(C(N)=O)n1 | 18 ×10⁻⁶ cm/s
* Cn1cc(NC(=O)c2cccc(-c3ccnc(N)c3)n2)c(C(N)=O)n1 | 23 ×10⁻⁶ cm/s
* CN(C)[C@H]1CN(C(=O)c2nn(C)cc2NC(=O)c2cccc(-c3ccnc(NCC4CC4)c3)n2)C[C@@H]1O | 11 ×10⁻⁶ cm/s
* Cn1cc(-c2cccc(C(=O)Nc3cn(C)nc3C(N)=O)n2)cn1 | 29 ×10⁻⁶ cm/s
* Cn1cc(NC(=O)c2cnn3ccc(N4CCNCC4)nc23)c(C(N)=O)n1 | 1.6 ×10⁻⁶ cm/s

---

biological target: Interleukin-1 receptor-associated kinase 4 (Homo sapiens); assay: Inhibition of human recombinant N-terminal GST-tagged full-length IRAK4 expressed in baculovirus infected Sf9 insect cells using 5FAM-RKRQGSVRRRVH-COOH as substrate in presence of ATP by IMAP fluorescence polarization assay
reported-property: IC50 (nM)

* Cn1cc(NC(=O)c2cnn3ccc(N4CCNCC4)nc23)c(C(N)=O)n1 | 38
* Cn1cc(NC(=O)c2cccc(-c3ccsc3)n2)c(C(N)=O)n1 | 401
* CN(C)CCCNC(=O)c1nn(C)cc1NC(=O)c1cccc(-c2ccnc(NCC3CC3)c2)n1 | 542
* Cn1cc(NC(=O)c2cccc(-c3cncc(Cl)c3)n2)c(C(N)=O)n1 | 106
* Cn1cc(NC(=O)c2cccc(-c3ccc(C4CC4)nc3)n2)c(C(N)=O)n1 | 121
* Cn1cc(NC(=O)c2cccc(-c3ccnc(NCC4CC4)c3)n2)c(C(=O)NCc2ncc[nH]2)n1 | 1610
* Cn1cc(-c2cccc(C(=O)Nc3cn(C)nc3C(N)=O)n2)cn1 | 36
* Cn1cc(NC(=O)c2cccc(-c3ccccc3)n2)c(C(N)=O)n1 | 3650

Origin of values: ChEMBL document CHEMBL4425185
